# SUBJECT OF TEST: Phosphatidylcholine:ceramide cholinephosphotransferase 1 (Mus musculus, UniProt Q8VCQ6)
# Sequence (Q8VCQ6 whole entry): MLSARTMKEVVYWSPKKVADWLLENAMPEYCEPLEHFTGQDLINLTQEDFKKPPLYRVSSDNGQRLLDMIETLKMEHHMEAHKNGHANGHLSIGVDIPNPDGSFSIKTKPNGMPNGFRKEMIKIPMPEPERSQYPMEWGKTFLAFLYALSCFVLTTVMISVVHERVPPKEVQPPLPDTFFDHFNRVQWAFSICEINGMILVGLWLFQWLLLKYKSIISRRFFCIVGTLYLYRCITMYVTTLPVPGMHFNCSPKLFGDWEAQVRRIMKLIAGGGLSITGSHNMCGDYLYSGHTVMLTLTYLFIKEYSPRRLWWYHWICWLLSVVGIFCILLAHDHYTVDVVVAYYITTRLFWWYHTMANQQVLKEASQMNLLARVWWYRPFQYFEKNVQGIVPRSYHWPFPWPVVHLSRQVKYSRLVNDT
# TEST SUMMARY: Inhibition of SMS1 in MEF cells using C6-NBD-ceramide as substrate preincubated for 1 hr followed by substrate addition and measured after 1 hr by HPLC analysis
READOUT NAME: IC50 (µM)
Numbers only here, please. The scale is µM.

Inquiry: Quick one: give measured IC50 for O=C(CCCCCCCCc1ccc(O)c(O)c1)c1c(O)cccc1O
Reply text: 13

====

# SUBJECT OF TEST: Phosphatidylcholine:ceramide cholinephosphotransferase 2 (Mus musculus, UniProt Q9D4B1)
# Sequence (Q9D4B1 whole entry): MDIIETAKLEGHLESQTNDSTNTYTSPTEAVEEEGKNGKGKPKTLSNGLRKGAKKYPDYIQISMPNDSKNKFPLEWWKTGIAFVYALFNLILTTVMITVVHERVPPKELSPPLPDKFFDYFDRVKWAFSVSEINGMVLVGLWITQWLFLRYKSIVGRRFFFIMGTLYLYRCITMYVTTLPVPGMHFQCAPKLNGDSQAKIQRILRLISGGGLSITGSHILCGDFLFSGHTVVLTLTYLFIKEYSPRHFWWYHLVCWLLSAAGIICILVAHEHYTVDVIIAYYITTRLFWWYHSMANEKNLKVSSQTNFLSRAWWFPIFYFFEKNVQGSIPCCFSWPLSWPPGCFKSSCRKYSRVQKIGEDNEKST
# TEST SUMMARY: Inhibition of SMS2 in MEF cells using C6-NBD-ceramide as substrate preincubated for 1 hr followed by substrate addition and measured after 1 hr by HPLC analysis
READOUT NAME: IC50

Inquiry: In one line, give reported IC50 of the entry O=C(CCCCCCCCc1ccc(O)c(O)c1)c1c(O)cccc1O .
Reply text: 11 µM

====

# SUBJECT OF TEST: Phosphatidylcholine:ceramide cholinephosphotransferase 1 (Homo sapiens, UniProt Q86VZ5)
# Sequence (Q86VZ5 whole entry): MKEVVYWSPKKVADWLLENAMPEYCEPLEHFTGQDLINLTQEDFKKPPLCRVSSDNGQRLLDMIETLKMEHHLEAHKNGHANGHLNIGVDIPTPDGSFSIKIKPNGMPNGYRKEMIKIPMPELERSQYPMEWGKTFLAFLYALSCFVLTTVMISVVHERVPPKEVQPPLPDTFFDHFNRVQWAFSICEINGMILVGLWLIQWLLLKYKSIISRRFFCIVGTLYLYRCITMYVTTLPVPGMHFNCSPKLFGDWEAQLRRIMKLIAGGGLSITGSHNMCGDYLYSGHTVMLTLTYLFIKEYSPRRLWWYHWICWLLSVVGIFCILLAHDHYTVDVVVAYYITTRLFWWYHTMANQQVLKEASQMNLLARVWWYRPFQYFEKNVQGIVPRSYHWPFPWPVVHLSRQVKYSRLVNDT
# TEST SUMMARY: Inhibition of SMS1 (unknown origin) stably expressed in mouse ZS cells using C6-NBD-ceramide as substrate preincubated for 30 mins followed by substrate addition and measured after 3 hrs by HPLC analysis
# Assay type: cell-based
molecules and their reported IC50
Kindly provide the numeric value in µM only, without the unit symbol.

Inquiry: Output measured IC50 for this item: O=C(CCCCCCCCc1ccc(O)c(O)c1)c1c(O)cccc1O
Reply text: 3

---
Inquiry: Provide only the value of recorded IC50 for O=C(CCCCCCCCc1ccc(O)cc1)c1c(O)cccc1O
Reply text: 3.5

Inquiry: Give me measured IC50, please, for this molecule: O=C(CCCCCCCCc1ccc(O)cc1)c1c(O)cc(O)cc1O
Reply text: 6

Inquiry: For the molecule O=C(CCCCCCCCc1ccccc1)c1c(O)cccc1O , give its measured IC50 value.
Reply text: 4

====

# SUBJECT OF TEST: Phosphatidylcholine:ceramide cholinephosphotransferase 1 (Homo sapiens)
# TEST SUMMARY: Noncompetitive inhibition of SMS1 (unknown origin) stably expressed in mouse ZS cells using 5 to 50 uM C6-NBD-ceramide as substrate preincubated for 30 mins followed by substrate addition and measured after 3 hrs by HPLC analysis
# Type: cell-based
Catalogue of IC50 readings, one per entry.

Solved entries (count: 2):
Inquiry: Quickly give me recorded IC50 for O=C(CCCCCCCCc1ccc(O)c(O)c1)c1c(O)cccc1O
Reply text: 2 to 3 µM

Inquiry: Give me measured IC50, please, for this molecule: O=C(CCCCCCCCc1ccc(O)cc1)c1c(O)cccc1O
Reply text: 2 to 3 µM

// next entry
Inquiry: Annotate the molecule O=C(CCCCCCCCc1ccccc1)c1c(O)cccc1O with its measured IC50.
Reply text: 2 to 3 µM

====

# SUBJECT OF TEST: Phosphatidylcholine:ceramide cholinephosphotransferase 2 (Homo sapiens)
# Sequence (Q8NHU3 whole entry): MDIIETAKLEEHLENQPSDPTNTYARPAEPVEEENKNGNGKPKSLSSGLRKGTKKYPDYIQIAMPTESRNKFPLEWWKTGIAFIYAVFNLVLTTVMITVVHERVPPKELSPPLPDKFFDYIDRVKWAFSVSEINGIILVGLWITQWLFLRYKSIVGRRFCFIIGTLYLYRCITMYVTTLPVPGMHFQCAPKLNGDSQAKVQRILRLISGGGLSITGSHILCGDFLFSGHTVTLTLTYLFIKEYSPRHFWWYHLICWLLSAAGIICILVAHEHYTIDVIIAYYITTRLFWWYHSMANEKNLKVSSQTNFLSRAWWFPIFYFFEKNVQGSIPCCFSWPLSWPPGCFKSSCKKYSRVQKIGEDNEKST
# TEST SUMMARY: Inhibition of SMS2 (unknown origin) stably expressed in mouse ZS cells using C6-NBD-ceramide as substrate preincubated for 30 mins followed by substrate addition and measured after 3 hrs by HPLC analysis
# Format: cell-based
READOUT NAME: IC50 (µM)
Kindly answer with a numeric value in µM, unit omitted.

Some compounds with recorded IC50:
Inquiry: Look up and report measured IC50 for this entry: O=C(CCCCCCCCc1ccccc1)c1c(O)cccc1O
Reply text: 4

Inquiry: Recall and state the measured IC50 for O=C(CCCCCCCCc1ccc(O)cc1)c1c(O)cccc1O .
Reply text: 2.5

Inquiry: Determine from records and report IC50 for O=C(CCCCCCCCc1ccc(O)cc1)c1c(O)cc(O)cc1O
Reply text: 4.5

Now for a further compound.
Inquiry: # return recorded IC50 for input O=C(CCCCCCCCc1ccc(O)c(O)c1)c1c(O)cccc1O
Reply text: 1.5
